The values you see were collected from patent US20260167959A1.

Test system: Renilla luciferase RNA
METHOD DESCRIPTION: Barcoded aptazyme variant library screen: un-cleaved Renilla luciferase RNA by barcode read counts, HEK293-T cells
Assay type: cell-based
ASSAY CONTEXT: un-cleaved Renilla luciferase RNA, HEK293-T cells cultured with 1 mM theophylline (ON) over without theophylline (OFF); barcode read counts, triplicate
From the text: Based on the findings from Example 1, an aptazyme variant library was generated from the T3H48 ribozyme with one of seven variant theophylline aptamers inserted sequentially after each nucleotide of the DNA sequence encoding the T3H48 ribozyme sequence. […] The seven variant theophylline aptamers vary in their communication channels, which are the ribonucleotides of the aptamer that attach to the ribozyme sequence (see, Table 2). […]
Please provide measured Fold change in RNA expression between the ON state and the OFF state for the entries that follow.
Numbers only, in fold.

Previously resolved entries follow.
MOLECULE: RA190 (nucleic acid, expressed or natural sequence) DNA: GCGCGTCCTGGATTCGCGAGTGATACCAGCATCGTCTTGATGCCCTTGGCAGCACTGAAACGCGTACATCCAGCTGACGAGTCCCAAATAGGACGAAACGCGC
OBS VALUE: 1.2

MOLECULE: RA090 (nucleic acid, expressed or natural sequence) DNA: GCGCGTCCTGGAAGTGATACCAGCATCGTCTTGATGCCCTTGGCAGCACTTTCGCGGAAACGCGTACATCCAGCTGACGAGTCCCAAATAGGACGAAACGCGC
OBS VALUE: 1.7

MOLECULE: RA170 (nucleic acid, expressed or natural sequence) DNA: GCGCGTCCTGGATTCGCGGAAACGCGTACATCCAGCTGACGAGTCCCAAATAGGACGAAACGCAGAATACCAGCATCGTCTTGATGCCCTTGGAAGTCTGC
OBS VALUE: 1.3

MOLECULE: RA105 (nucleic acid, expressed or natural sequence) DNA: GCGCGTCCTGGAGAATACCAGCATCGTCTTGATGCCCTTGGAAGTCTCGATTCGCGGAAACGCGTACATCCAGCTGACGAGTCCCAAATAGGACGAAACGCGC
OBS VALUE: 1.6

MOLECULE: RA104 (nucleic acid, expressed or natural sequence) DNA: GCGCGTCCTGGATTCGCGGAAACGCGTACATCCAGCTGACGAGTCCCAAATCGAGAATACCAGCATCGTCTTGATGCCCTTGGAAGTCTCGAGGACGAAACGCGC
OBS VALUE: 1.6

Please give Fold change in RNA expression between the ON state and the OFF state, item by item, for the list that follows.
1. RA166 (nucleic acid, expressed or natural sequence) DNA: GCGCGTCCTGGATTCGCGGAAACGCGTACATCCAGCTGACGAGTCCCACGAGAATACCAGCATCGTCTTGATGCCCTTGGAAGTCTCGAATAGGACGAAACGCGC
2. RA185 (nucleic acid, expressed or natural sequence) DNA: GCGCGTCCTGGATTCGCGGAAACGCGTACATCCAGCTGACGAGTCCCAAATACGGAATACCAGCATCGTCTTGATGCCCTTGGAAGTCCGGGACGAAACGCGC

Resp:
1. 1.3
2. 1.3

Batch request: Fold change in RNA expression between the ON state and the OFF state for each of the following molecules.
1. RA240 (nucleic acid, expressed or natural sequence) DNA: GCGCGTCCTGGATTCGCGGAAACGCGTACATCCAGCTGACGAGTCCCCGAGAATACCAGCATCGTCTTGATGCCCTTGGAAGTCTCGAAATAGGACGAAACGCGC
2. RA094 (nucleic acid, expressed or natural sequence) DNA: GCGCGTCCTGGATTCGCGGAGGAATACCAGCATCGTCTTGATGCCCTTGGAAGTCCAACGCGTACATCCAGCTGACGAGTCCCAAATAGGACGAAACGCGC
3. RA007 (nucleic acid, expressed or natural sequence) DNA: GCGCGTCCTGGATTCGCGGAAACGCGTACATCCAGCTGACGAGTCCCAAATAGGACGAAACGCGAGAATACCAGCATCGTCTTGATGCCCTTGGAAGTCTCGCGC
4. RA196 (nucleic acid, expressed or natural sequence) DNA: GCGCGTCCTGGATTCGCGGAAACGCGTACATCCAGCTGACGAGTCCCAAATGAGAATACCAGCATCGTCTTGATGCCCTTGGAAGTCTCAGGACGAAACGCGC
5. RA206 (nucleic acid, expressed or natural sequence) DNA: GCGCGTCCTGGATTCGCCGGAATACCAGCATCGTCTTGATGCCCTTGGAAGTCCGGCGGAAACGCGTACATCCAGCTGACGAGTCCCAAATAGGACGAAACGCGC

Resp:
1.1
1.6
4.5
1.2
1.2

I'm hoping you can list Fold change in RNA expression between the ON state and the OFF state for every molecule here, please.
1. RA255 (nucleic acid, expressed or natural sequence) DNA: GCGCGTCCTGGATTCGCGGAAACGCGTACATCCAGCTGACGAGTCCCAAATAGGACGAAACCGGAATACCAGCATCGTCTTGATGCCCTTGGAAGTCCGGCGCGC
2. RA111 (nucleic acid, expressed or natural sequence) DNA: GCGCGTCCTAGTGATACCAGCATCGTCTTGATGCCCTTGGCAGCACTGGATTCGCGGAAACGCGTACATCCAGCTGACGAGTCCCAAATAGGACGAAACGCGC

Resp:
[1.1, 1.6]
